B1: Dystrobrevin alpha, residues 235 to 294; numbered along this chain, Q9Y4J8 (parent)
chain: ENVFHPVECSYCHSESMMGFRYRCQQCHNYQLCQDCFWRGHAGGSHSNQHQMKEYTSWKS

Variants of: B1
procedureText: abundance fitness (aPCA) (normalised: wild type 0, dead -1); higher = more abundant; growth selection in yeast, the domain comes from the species named
assaySetup: Homo sapiens
In this section we review reported abundance fitness values for a set of variants.
A bare number is all that is needed in reply.

Below, each entry is followed by its recorded abundance fitness result.
[
  {
    "macromoleculeSequence": "ENVFHPVECSYCHSESMMGFRYRCQMCHNYQLCQDCFWRGHAGGSHSNQHQMKEYTSWKS [Q26M]",
    "abundance fitness": -0.355
  },
  {
    "macromoleculeSequence": "ENVFHPVECSYGHSESMMGFRYRCQQCHNYQLCQDCFWRGHAGGSHSNQHQMKEYTSWKS [C12G]",
    "abundance fitness": -0.762
  },
  {
    "macromoleculeSequence": "ENVFHPVECSYCHSESMMGKRYRCQQCHNYQLCQDCFWRGHAGGSHSNQHQMKEYTSWKS [F20K]",
    "abundance fitness": 0.31
  }
]

// returns reported abundance fitness for input ENVFHPVECSYHHSESMMGFRYRCQQCHNYQLCQDCFWRGHAGGSHSNQHQMKEYTSWKS [C12H]
-0.549

// returns reported abundance fitness for input ENVFHPVECSYCHSESMMGFRYRCQQCHNYQACQDCFWRGHAGGSHSNQHQMKEYTSWKS [L32A]
-0.656

// returns reported abundance fitness for input ENVFHPVECSYCHSRSMMGFRYRCQQCHNYQLCQDCFWRGHAGGSHSNQHQMKEYTSWKS [E15R]
0.054

// returns reported abundance fitness for input ENVFHPNECSYCHSESMMGFRYRCQQCHNYQLCQDCFWRGHAGGSHSNQHQMKEYTSWKS [V7N]
0.154

// returns reported abundance fitness for input ENVFHPVECSYCHSESMMGFRYRCQQCHNYQLCTDCFWRGHAGGSHSNQHQMKEYTSWKS [Q34T]
-0.19

// returns reported abundance fitness for input ENVFHPVECSYCHSESMMGFRYRCQWCHNYQLCQDCFWRGHAGGSHSNQHQMKEYTSWKS [Q26W]
-0.498

// returns reported abundance fitness for input ENVFHPVECSYCHSEDMMGFRYRCQQCHNYQLCQDCFWRGHAGGSHSNQHQMKEYTSWKS [S16D]
0.012
